tgt: Env of HIV-1 strain PVO.4 (HIV-1)
assayProtocol: cell-based or functional assay
neutralization IC50 overview
Hi! Could you send only the number? It should be in µg/mL, unit omitted.

binder | numericValue
γ46κ11 (antibody, V domains shown) VH: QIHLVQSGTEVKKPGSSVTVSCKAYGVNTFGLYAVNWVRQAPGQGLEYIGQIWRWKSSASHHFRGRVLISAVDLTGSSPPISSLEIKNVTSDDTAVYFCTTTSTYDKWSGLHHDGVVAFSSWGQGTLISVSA VL: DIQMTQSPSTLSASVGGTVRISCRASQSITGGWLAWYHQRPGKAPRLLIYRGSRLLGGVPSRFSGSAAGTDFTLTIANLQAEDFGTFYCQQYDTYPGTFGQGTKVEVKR | 2.92

Query: # query: neutralization IC50 of entry 8ANC3484 (antibody, V domains shown) VH: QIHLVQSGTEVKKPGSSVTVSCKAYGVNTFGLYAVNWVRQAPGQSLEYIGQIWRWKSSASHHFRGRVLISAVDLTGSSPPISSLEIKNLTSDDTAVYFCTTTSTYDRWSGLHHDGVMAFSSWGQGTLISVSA VL: DIQMTQSPSTLSASIGDTVRISCRASQSITGNWVAWYQQRPGKAPRLLIYRGAALLGGVPSRFRGSAAGTDFTLTIGNLQAEDFGTFYCQQYDTYPGTFGQGTKVEVKR
Response: 0.077
